- measurement-protocol: molar heat capacity at constant pressure
- condition-summary: 215.15 K; 101.33 kPa; Crystal; Small sample (50 mg) DSC
endpoint-label: molar heat capacity at constant pressure (J/K/mol)
Give the number; J/K/mol is assumed, so skip it.

Reference set (3 entries):
In [3]: df
Out[3]:
                                   molecule  result_value
0  OC[C@H](O)C(O)[C@@H](O)CO [L-(-)-arabitol]         149.6
1                    OC[C@@H](O)[C@@H](O)CO        120.96
2            OC[C@@H](O)[C@H](O)[C@@H](O)CO        151.28

Exam item: Item OC[C@@H](O)C(O)[C@H](O)CO has what recorded molar heat capacity at constant pressure?
Marked response: 145.07

Exam item: Another molecule to look at: OC[C@@H](O)[C@@H](O)[C@H](O)[C@H](O)CO
Marked response: 168.49

Exam item: Another molecule to look at: O[C@H]1[C@H](O)[C@@H](O)[C@H](O)[C@@H](O)[C@H]1O [cis-1,2,3,5-trans-4,6-cyclohexanehexol]
Marked response: 154.79

* * *

- measurement-protocol: molar heat capacity at constant pressure
- condition-summary: 287.15 K; 101.33 kPa; Crystal; Small sample (50 mg) DSC
endpoint-label: molar heat capacity at constant pressure (J/K/mol)
Give the number; J/K/mol is assumed, so skip it.

In [3]: df
Out[3]:
                                   compound                            endpoint_label  result_value
0  OC[C@@H](O)[C@H](O)[C@@H](O)CO [xylitol]  molar heat capacity at constant pressure        200.97

Exam item: Item OC[C@@H](O)[C@@H](O)[C@H](O)[C@H](O)CO [D-mannitol] has what recorded molar heat capacity at constant pressure?
Marked response: 221.79

* * *

- measurement-protocol: molar heat capacity at constant pressure
- condition-summary: 305 K; 101.33 kPa; Crystal; Small sample (50 mg) DSC
Labelling field: enter 1 if recorded molar heat capacity at constant pressure is less than 200 J/K/mol. Enter 0 if it equals or exceeds that cut-off.

>>> df
                                   compound  assigned_label
0  O[C@H]1[C@H](O)[C@@H](O)[C@H](O)[C@@H](O)[C@H]1O [cis-1,2,3,5-trans-4,6-cyclohexanehexol]               0

Now turn to the next compound.
Exam item: Field: below-cutoff. Rule: recorded molar heat capacity at constant pressure strictly less than 200 J/K/mol. Subject: OC[C@@H](O)[C@@H](O)[C@H](O)[C@H](O)CO [D-mannitol]
Marked response: 0

* * *

- measurement-protocol: molar heat capacity at constant pressure
- condition-summary: 298.15 K; 101.33 kPa; Crystal; relaxation calorimetry
Please use YES whenever molar heat capacity at constant pressure is not below 200 J/K/mol, and NO whenever it is.

>>> print(df.to_string())
                                   compound  assigned_label
0                    OC[C@@H](O)[C@@H](O)CO              NO
1  O[C@H]1[C@H](O)[C@@H](O)[C@H](O)[C@@H](O)[C@H]1O [cis-1,2,3,5-trans-4,6-cyclohexanehexol]             YES
2  OC[C@H](O)C(O)[C@@H](O)CO [L-(-)-arabitol]             YES

Exam item: For this compound, is measured molar heat capacity at constant pressure 200 J/K/mol or higher? OC[C@@H](O)[C@H](O)[C@@H](O)CO
Marked response: YES

Exam item: Another compound to look at: OC[C@@H](O)[C@@H](O)[C@H](O)[C@H](O)CO
Marked response: YES

* * *

- measurement-protocol: molar heat capacity at constant pressure
- condition-summary: 300 K; 101.33 kPa; Crystal; relaxation calorimetry
endpoint-label: molar heat capacity at constant pressure (J/K/mol)
Give the number; J/K/mol is assumed, so skip it.

Reference set (5 entries):
                                   compound  result_value
0                 OC[C@@H](O)C(O)[C@H](O)CO        202.57
1            OC[C@@H](O)[C@H](O)[C@@H](O)CO        208.32
2  OC[C@H](O)C(O)[C@@H](O)CO [L-(-)-arabitol]         207.8
3    OC[C@@H](O)[C@@H](O)[C@H](O)[C@H](O)CO        231.93
4                    OC[C@@H](O)[C@@H](O)CO        165.76

Exam item: Item O[C@H]1[C@H](O)[C@@H](O)[C@H](O)[C@@H](O)[C@H]1O [cis-1,2,3,5-trans-4,6-cyclohexanehexol] has what recorded molar heat capacity at constant pressure?
Marked response: 219.42

* * *

- measurement-protocol: molar heat capacity at constant pressure
- condition-summary: 277.15 K; 101.33 kPa; Crystal; Small sample (50 mg) DSC
endpoint-label: molar heat capacity at constant pressure (J/K/mol)
Give the number; J/K/mol is assumed, so skip it.

Reference set (5 entries):
In [3]: df
Out[3]:
                                   compound  quantity_unit  result_value
0  OC[C@@H](O)[C@H](O)[C@@H](O)CO [xylitol]        J/K/mol        193.74
1  O[C@H]1[C@H](O)[C@@H](O)[C@H](O)[C@@H](O)[C@H]1O [cis-1,2,3,5-trans-4,6-cyclohexanehexol]        J/K/mol        201.63
2    OC[C@@H](O)C(O)[C@H](O)CO [D-arabitol]        J/K/mol        185.89
3  OC[C@H](O)C(O)[C@@H](O)CO [L-(-)-arabitol]        J/K/mol        193.16
4  OC[C@@H](O)[C@@H](O)CO [meso-1,2,3,4-butanetetrol]        J/K/mol        152.94

Next up:
Exam item: Item OC[C@@H](O)[C@@H](O)[C@H](O)[C@H](O)CO [D-mannitol] has what recorded molar heat capacity at constant pressure?
Marked response: 214.68

* * *

- condition-summary: 325 K; 101.33 kPa; Crystal; Small sample (50 mg) DSC
endpoint-label: molar entropy (J/K/mol)
Give the number; J/K/mol is assumed, so skip it.

Reference set (4 entries):
>>> df
                                   molecule  result_value
0  O[C@H]1[C@H](O)[C@@H](O)[C@H](O)[C@@H](O)[C@H]1O [cis-1,2,3,5-trans-4,6-cyclohexanehexol]        217.91
1            OC[C@@H](O)[C@H](O)[C@@H](O)CO        217.15
2    OC[C@@H](O)[C@@H](O)[C@H](O)[C@H](O)CO         247.9
3                    OC[C@@H](O)[C@@H](O)CO        180.36

Exam item: Item OC[C@@H](O)C(O)[C@H](O)CO has what recorded molar entropy?
Marked response: 218.03

Exam item: Another molecule to look at: OC[C@H](O)C(O)[C@@H](O)CO [L-(-)-arabitol]
Marked response: 220.73

* * *

- measurement-protocol: molar heat capacity at constant pressure
- condition-summary: 197.15 K; 101.33 kPa; Crystal; Small sample (50 mg) DSC
Catalogue of compounds with associated molar heat capacity at constant pressure
Give the number; J/K/mol is assumed, so skip it.

Exam item: Item OC[C@H](O)C(O)[C@@H](O)CO [L-(-)-arabitol] has what recorded molar heat capacity at constant pressure?
Marked response: 137.42

Exam item: Another compound to look at: OC[C@@H](O)[C@@H](O)[C@H](O)[C@H](O)CO [D-mannitol]
Marked response: 153.48

Exam item: Another compound to look at: OC[C@@H](O)[C@@H](O)CO [meso-1,2,3,4-butanetetrol]
Marked response: 111.25

Exam item: Another compound to look at: O[C@H]1[C@H](O)[C@@H](O)[C@H](O)[C@@H](O)[C@H]1O [cis-1,2,3,5-trans-4,6-cyclohexanehexol]
Marked response: 140.42

Exam item: Another compound to look at: OC[C@@H](O)C(O)[C@H](O)CO [D-arabitol]
Marked response: 131.96

Exam item: Another compound to look at: OC[C@@H](O)[C@H](O)[C@@H](O)CO [xylitol]
Marked response: 137.99

* * *

Catalogue of compounds with associated molar heat capacity at constant pressure
- measurement-protocol: molar heat capacity at constant pressure
- condition-summary: 415 K; 101.33 kPa; Liquid; Small sample (50 mg) DSC
Give the number; J/K/mol is assumed, so skip it.

Reference set (3 entries):
In [3]: df
Out[3]:
                                   compound  result_value
0  OC[C@@H](O)[C@@H](O)CO [meso-1,2,3,4-butanetetrol]        354.91
1    OC[C@@H](O)C(O)[C@H](O)CO [D-arabitol]        452.02
2  OC[C@H](O)C(O)[C@@H](O)CO [L-(-)-arabitol]        451.18

Exam item: Item OC[C@@H](O)[C@H](O)[C@@H](O)CO [xylitol] has what recorded molar heat capacity at constant pressure?
Marked response: 443.73
